Target: T1, cynomolgus IL-36α, truncated (cynomolgus macaque (Macaca fascicularis), UniProt Q9UHA7 14-158 (human entry), limits assumed)
T1 construct: Untagged after removal of the His-SUMO tag; also called cynomolgus IL-36 alpha; cyIL-36alpha
T1 chain: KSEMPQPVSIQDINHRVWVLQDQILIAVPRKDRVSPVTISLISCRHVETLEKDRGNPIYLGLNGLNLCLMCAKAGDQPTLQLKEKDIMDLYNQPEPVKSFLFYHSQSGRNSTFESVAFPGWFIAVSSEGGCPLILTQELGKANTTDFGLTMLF
Assay: SPR, Biacore, 1:1 Langmuir fit
PROPERTY: Kd (pM)
Give bare numbers, in pM.

| BINDER | UNIT_TAG | Kd |
| --- | --- | --- |
| 144L249B LV9 HV10c (antibody, V domains shown, Humanized) VH: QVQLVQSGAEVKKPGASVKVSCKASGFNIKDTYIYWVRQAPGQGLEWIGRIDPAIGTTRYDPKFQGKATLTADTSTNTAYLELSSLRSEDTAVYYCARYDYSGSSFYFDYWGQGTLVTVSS VL: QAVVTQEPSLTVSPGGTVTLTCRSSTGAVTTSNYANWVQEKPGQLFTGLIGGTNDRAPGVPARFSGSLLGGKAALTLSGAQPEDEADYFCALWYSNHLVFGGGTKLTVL | pM | 674 |

Req: For 144D464A LV11re HV10b (antibody, V domains shown, Humanized) VH: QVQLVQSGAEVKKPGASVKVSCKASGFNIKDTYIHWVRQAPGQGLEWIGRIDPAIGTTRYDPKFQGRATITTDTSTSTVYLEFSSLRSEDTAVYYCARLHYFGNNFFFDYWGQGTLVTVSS VL: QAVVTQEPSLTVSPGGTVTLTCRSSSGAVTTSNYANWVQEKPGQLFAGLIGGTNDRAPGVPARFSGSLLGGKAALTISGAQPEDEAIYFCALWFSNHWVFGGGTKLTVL , write its Kd.
Resp: 1100
